# EXPERIMENT_DESCRIPTION: Compound solubility limit in transporter assay buffer
# Assay type: physicochemical
# CONDITION_LABEL: BSEP assay buffer, aqueous buffer; read-out: upper limit of compound solubility
MEASURED_METRIC: solubility (µM)
Answers are plain numbers, in µM.

solubility reported for this compound C[C@@H]1[C@H](c2ccccc2)C[C@H](NC(=O)c2cnc3c(c2)C[C@@]2(C3)C(=O)Nc3ncccc32)C(=O)N1CC(F)(F)F [Ubrogepant] : 30

* * *

# TEST_SYSTEM: BSEP (Homo sapiens)
# Construct: Solvo Biotechnology (Szeged, Hungary), contract laboratory that ran the assay
# Sequence (O95342 whole entry): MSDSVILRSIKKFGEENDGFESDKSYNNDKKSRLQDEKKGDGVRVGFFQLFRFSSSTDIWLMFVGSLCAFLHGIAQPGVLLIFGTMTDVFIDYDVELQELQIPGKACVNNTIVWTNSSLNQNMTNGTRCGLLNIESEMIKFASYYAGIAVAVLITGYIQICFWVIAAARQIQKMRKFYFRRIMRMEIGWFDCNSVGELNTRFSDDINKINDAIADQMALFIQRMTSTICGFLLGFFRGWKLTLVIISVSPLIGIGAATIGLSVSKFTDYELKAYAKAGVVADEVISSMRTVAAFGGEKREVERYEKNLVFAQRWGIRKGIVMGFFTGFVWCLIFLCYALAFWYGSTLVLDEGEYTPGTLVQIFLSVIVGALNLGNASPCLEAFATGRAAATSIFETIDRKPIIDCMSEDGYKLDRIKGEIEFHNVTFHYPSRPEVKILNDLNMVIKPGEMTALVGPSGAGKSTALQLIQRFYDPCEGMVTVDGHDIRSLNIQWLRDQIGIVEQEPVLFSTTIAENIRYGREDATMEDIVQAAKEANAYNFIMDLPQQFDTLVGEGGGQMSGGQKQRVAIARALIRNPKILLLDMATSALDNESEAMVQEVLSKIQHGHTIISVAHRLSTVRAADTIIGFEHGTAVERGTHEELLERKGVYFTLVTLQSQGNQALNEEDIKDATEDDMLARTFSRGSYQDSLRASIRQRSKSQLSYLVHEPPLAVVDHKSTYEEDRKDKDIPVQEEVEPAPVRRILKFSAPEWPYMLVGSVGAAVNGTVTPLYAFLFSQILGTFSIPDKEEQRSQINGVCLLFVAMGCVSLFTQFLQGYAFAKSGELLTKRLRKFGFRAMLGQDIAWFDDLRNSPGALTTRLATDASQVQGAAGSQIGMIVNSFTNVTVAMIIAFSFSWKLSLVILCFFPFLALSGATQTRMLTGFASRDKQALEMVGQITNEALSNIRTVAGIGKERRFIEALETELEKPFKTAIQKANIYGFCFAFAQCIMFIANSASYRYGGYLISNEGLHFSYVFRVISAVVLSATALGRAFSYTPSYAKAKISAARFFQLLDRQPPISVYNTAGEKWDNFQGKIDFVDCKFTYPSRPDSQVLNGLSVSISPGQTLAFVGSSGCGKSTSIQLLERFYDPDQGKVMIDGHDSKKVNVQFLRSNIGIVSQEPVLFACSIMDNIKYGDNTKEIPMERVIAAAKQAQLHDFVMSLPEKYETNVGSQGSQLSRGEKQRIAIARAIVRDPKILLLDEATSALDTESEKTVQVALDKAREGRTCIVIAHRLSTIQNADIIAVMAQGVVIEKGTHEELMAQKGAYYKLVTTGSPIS
# EXPERIMENT_DESCRIPTION: BSEP vesicular transport inhibition assay
# Type: biochemical
# CONDITION_LABEL: mixed inhibition model, nonlinear regression
# Description: These assays were conducted by Solvo Biotechnology and overseen by DSSI. […] In the current project, additional assays were conducted to determine the Ki value and inhibition type for ubrogepant for BSEP-mediated bile acid transport. […] Ki and inhibition type for ubrogepant were determined by fitting a mixed inhibition model to the untransformed data by nonlinear regression analysis. […]
MEASURED_METRIC: Ki (µM)
Give bare numbers, in µM.

For record C[C@@H]1[C@H](c2ccccc2)C[C@H](NC(=O)c2cnc3c(c2)C[C@@]2(C3)C(=O)Nc3ncccc32)C(=O)N1CC(F)(F)F [Ubrogepant] the listed Ki is 38.1

More entries:
Looking up O=C(N[C@@H]1CC[C@@H](c2cccc(F)c2F)CN(CC(F)(F)F)C1=O)N1CCC(n2c(=O)[nH]c3ncccc32)CC1 [Telcagepant] , I found its Ki recorded as 7.9

* * *

# TEST_SYSTEM: MRP4 (Homo sapiens, UniProt O15439)
# Construct: Solvo Biotechnology (Szeged, Hungary), contract laboratory that ran the assay
# EXPERIMENT_DESCRIPTION: MRP4 vesicular transport inhibition assay
# Assay type: biochemical
# CONDITION_LABEL: human, membrane vesicles with MRP4 (vesicular transport assay); read-out: maximum inhibition at the highest concentration tested, MRP4
MEASURED_METRIC: inhibition at 20 µM

So for "O=C(N[C@@H]1CC[C@@H](c2cccc(F)c2F)CN(CC(F)(F)F)C1=O)N1CCC(n2c(=O)[nH]c3ncccc32)CC1" , the logged inhibition at 20 µM turned out to be < 50%

* * *

# TEST_SYSTEM: BSEP (Homo sapiens)
# Construct: Solvo Biotechnology (Szeged, Hungary), contract laboratory that ran the assay
# EXPERIMENT_DESCRIPTION: BSEP vesicular transport inhibition assay
# Type: biochemical
# CONDITION_LABEL: competitive inhibition model
# Experimental: These assays were conducted by Solvo Biotechnology and overseen by DSSI. […] In the current project, additional assays were conducted to determine the Ki value and inhibition type for ubrogepant for BSEP-mediated bile acid transport. […] Ki and inhibition type for ubrogepant were determined by fitting a mixed inhibition model to the untransformed data by nonlinear regression analysis. […]
MEASURED_METRIC: Ki (µM)
Numbers only, in µM.

Here "O=C(CN1C(=O)C2(CCCC2)NC[C@H]1c1cc(F)cc(F)c1)Nc1ccc2c(c1)C[C@@]1(C2)C(=O)Nc2ncccc21" was tested on BSEP (Homo sapiens), and its Ki came to 7.62

* * *

# TEST_SYSTEM: CGRP receptor (Homo sapiens, UniProt O60894+Q16602)
# Sequence (Q16602 23-461): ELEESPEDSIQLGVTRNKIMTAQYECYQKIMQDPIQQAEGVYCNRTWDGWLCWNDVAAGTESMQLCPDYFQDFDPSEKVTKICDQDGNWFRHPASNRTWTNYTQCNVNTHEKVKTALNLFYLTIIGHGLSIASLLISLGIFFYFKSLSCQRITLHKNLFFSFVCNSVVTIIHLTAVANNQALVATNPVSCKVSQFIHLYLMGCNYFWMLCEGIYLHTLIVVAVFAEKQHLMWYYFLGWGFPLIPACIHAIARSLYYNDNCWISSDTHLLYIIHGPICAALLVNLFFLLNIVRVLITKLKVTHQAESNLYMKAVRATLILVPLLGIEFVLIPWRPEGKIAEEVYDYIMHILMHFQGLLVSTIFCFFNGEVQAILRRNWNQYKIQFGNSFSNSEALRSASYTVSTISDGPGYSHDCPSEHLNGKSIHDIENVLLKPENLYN
# Sequence (O60894 27-148): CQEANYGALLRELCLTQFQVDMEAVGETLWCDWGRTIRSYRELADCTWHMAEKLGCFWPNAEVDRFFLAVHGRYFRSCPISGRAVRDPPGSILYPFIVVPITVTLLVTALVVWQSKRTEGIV
# EXPERIMENT_DESCRIPTION: CGRP-stimulated cAMP response in HEK293 cells
# CONDITION_LABEL: read-out: Potency IC50
Would you kindly list IC50 for each of these molecules?
One number for each entry, in nM.

IC50 reported for this molecule "O=C(CN1C(=O)C2(CCCC2)NC[C@H]1c1cc(F)cc(F)c1)Nc1ccc2c(c1)C[C@@]1(C2)C(=O)Nc2ncccc21" : 0.12

# next molecule below
Lookup result for "C[C@@H]1[C@H](c2ccccc2)C[C@H](NC(=O)c2cnc3c(c2)C[C@@]2(C3)C(=O)Nc3ncccc32)C(=O)N1CC(F)(F)F" ; measured IC50: 0.08

* * *

# TEST_SYSTEM: MRP4 (Homo sapiens, UniProt O15439)
# Sequence (O15439 1-1325): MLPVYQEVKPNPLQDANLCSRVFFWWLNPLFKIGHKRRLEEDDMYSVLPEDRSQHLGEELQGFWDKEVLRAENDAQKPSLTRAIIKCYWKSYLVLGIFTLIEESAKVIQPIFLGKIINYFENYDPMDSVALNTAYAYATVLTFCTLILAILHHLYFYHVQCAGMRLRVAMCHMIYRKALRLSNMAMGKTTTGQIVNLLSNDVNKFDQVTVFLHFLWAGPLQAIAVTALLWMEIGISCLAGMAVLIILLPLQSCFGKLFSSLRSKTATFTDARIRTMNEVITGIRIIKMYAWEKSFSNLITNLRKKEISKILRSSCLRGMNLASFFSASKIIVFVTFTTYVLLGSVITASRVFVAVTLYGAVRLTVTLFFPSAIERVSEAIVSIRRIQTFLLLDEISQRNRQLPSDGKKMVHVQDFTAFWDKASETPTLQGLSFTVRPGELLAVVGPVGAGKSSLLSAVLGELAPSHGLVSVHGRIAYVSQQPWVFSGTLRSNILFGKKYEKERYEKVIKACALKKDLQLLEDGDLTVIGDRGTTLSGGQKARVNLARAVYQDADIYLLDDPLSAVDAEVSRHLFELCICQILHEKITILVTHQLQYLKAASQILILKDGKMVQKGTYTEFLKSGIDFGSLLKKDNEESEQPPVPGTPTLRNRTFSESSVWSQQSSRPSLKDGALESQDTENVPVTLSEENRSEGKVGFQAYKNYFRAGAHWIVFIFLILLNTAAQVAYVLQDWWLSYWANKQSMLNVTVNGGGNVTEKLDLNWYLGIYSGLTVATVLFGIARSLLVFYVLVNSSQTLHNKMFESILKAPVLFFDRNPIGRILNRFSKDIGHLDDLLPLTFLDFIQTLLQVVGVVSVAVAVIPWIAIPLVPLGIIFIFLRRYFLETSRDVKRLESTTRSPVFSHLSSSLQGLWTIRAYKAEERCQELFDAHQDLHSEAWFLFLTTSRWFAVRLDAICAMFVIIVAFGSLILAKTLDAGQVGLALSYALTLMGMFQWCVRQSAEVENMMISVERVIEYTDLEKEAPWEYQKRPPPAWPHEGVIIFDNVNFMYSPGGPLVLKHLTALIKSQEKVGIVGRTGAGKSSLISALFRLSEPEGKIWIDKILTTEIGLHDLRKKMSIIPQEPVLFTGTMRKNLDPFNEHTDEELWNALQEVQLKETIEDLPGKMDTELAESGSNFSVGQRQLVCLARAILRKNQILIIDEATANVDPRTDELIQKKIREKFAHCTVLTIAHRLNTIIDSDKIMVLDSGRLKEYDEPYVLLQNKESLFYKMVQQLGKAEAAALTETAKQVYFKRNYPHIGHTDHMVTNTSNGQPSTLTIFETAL
MEASURED_METRIC: IC50

Per the record, O=C(N[C@@H]1CC[C@@H](c2cccc(F)c2F)CN(CC(F)(F)F)C1=O)N1CCC(n2c(=O)[nH]c3ncccc32)CC1 [Telcagepant] has IC50 of ≥ 16.9 µM
